Some compounds, each annotated with its measured collision cross section in nitrogen.
- measurement.protocol: collision cross section in nitrogen (drift tube, single-field); higher = larger gas-phase ion size;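 also: chemical standards at 10 µM analysed by drift tube IMS-QTOF MS in about 3.95 torr nitrogen, mean of duplicate injections differing ≤1%, mass error below 10 ppm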
- assay.setup: ion type: [M+H]; ion source: APCI; ion mode: Positive
// return numeric value only (unit: Å², not printed)

Q: Look up collision cross section in nitrogen: CCCOC/C(=N\c1ccc(Cl)cc1C(F)(F)F)n1ccnc1
Result: 179.8

Q: Can you handle Cc1ccc(N=Nc2c(O)ccc3ccccc23)c(C)c1 next?
Result: 163.6

Q: Can you handle CC1(C)CN=C(NN=C(C=Cc2ccc(C(F)(F)F)cc2)C=Cc2ccc(C(F)(F)F)cc2)NC1 [Hydramethylnon] next?
Result: 239.4

----------
- measurement.protocol: collision cross section in nitrogen (drift tube, single-field); higher = larger gas-phase ion size
- assay.setup: ion type: [M+Na]; ion source: ESI; ion mode: Positive
Where a name gives a salt, the structure may show the parent alone.
Some compounds, each annotated with its measured collision cross section in nitrogen.
// return numeric value only (unit: Å², not printed)

INSERT INTO measurements (compound, meas_value) VALUES
  ('CCOC(=O)CC(SP(=O)(OC)OC)C(=O)OCC (centres undefined)', 165.7),
  ('COC(=O)c1c(C(F)F)nc(C(F)(F)F)c(C2=NCCS2)c1CC(C)C', 192.1),
  ('CC(C)(C)c1csc(-c2cc3cc(OCc4ccccc4CC(=O)O)ccc3o2)n1', 203.4),
  ('CCOc1cccc(-n2cc(C(=O)N3CCN(c4cc(C(=O)O)c5ccccc5c4)CC3)nc2-c2ccc(C)cc2)c1', 233.2),
  ('COC(=O)N(OC)c1ccccc1COc1ccn(-c2ccc(Cl)cc2)n1', 195.5),
  ('O=c1[nH]c2ccc(S(=O)CCN3CCC(Cc4ccc(F)cc4)CC3)cc2o1 (centres undefined)', 202),
  ('CCCCCCCCOC(=O)c1ccccc1C(=O)OCCCCCCCC [Di-n-octyl phthalate]', 214.6),
  ('CCCCc1oc2ccccc2c1C(=O)c1cc(I)c(OCCN(CC)CC)c(I)c1 [Amiodarone hydrochloride]', 231.6);

Next up:
Q: Look up collision cross section in nitrogen: CCOP(=S)(OCC)SCSP(=S)(OCC)OCC
Result: 182.3

----------
Some compounds, each annotated with its measured collision cross section in nitrogen.
- measurement.protocol: collision cross section in nitrogen (drift tube, single-field); higher = larger gas-phase ion size
- assay.setup: ion type: [M+Na]; ion source: ESI; ion mode: Positive
Where a name gives a salt, the structure may show the parent alone.
// return numeric value only (unit: Å², not printed)

Recorded results for 3 compounds are shown here.
INSERT INTO results (compound, quantity, meas_value) VALUES
  ('CCOC(=O)CN[C@@H](C(=O)N1CC[C@H]1C(=O)NCc1ccc(/C(N)=N/O)cc1)C1CCCCC1 [Ximelagatran]', 'collision cross section in nitrogen', 213),
  ('Cc1oc2c(NC(=O)c3c(Cl)cccc3Cl)cccc2c1C(C)(C)O', 'collision cross section in nitrogen', 190.9),
  ('COc1cnc(OC)n2nc(NS(=O)(=O)c3c(OCC(F)F)cccc3C(F)(F)F)nc12 [Penoxsulam]', 'collision cross section in nitrogen', 198.5);

Q: Look up collision cross section in nitrogen: CCCCCCCCCCCCc1ccccc1S(=O)(=O)O [Sodium dodecylbenzenesulfonate]
Result: 167.5

Q: Can you handle CCOP(=O)(CN(CCO)CCO)OCC [Diethyl (N,N-bis(2-hydroxyethyl)amino)methanephosphonate] next?
Result: 156.5

Q: Can you handle CN(C)CCN(Cc1cccs1)c1ccccn1 [Methapyrilene hydrochloride] next?
Result: 160.1

Q: Can you handle CCCCC(CC)COC(=O)C=Cc1ccc(OC)cc1 (stereo not drawn) [Octinoxate] next?
Result: 184.1

Q: Can you handle COc1cccc(-c2ccc(/C=C\CN3CCCCCC3)cc2Cl)c1 next?
Result: 196.9

----------
- measurement.protocol: collision cross section in nitrogen (drift tube, single-field); higher = larger gas-phase ion size
- assay.setup: ion type: [M-H]; ion source: ESI; ion mode: Negative
Some compounds, each annotated with its measured collision cross section in nitrogen.
// return numeric value only (unit: Å², not printed)

INSERT INTO results (compound, quantity, meas_value) VALUES
  ('CC(C)(C)c1cc(-n2nc3ccccc3n2)c(O)c(C(C)(C)C)c1 [2-(2''-Hydroxy-3'',5''-di-tert-butylphenyl)benzotriazole]', 'collision cross section in nitrogen', 192.5),
  ('O=C1C=CC(=O)N1c1ccc(Cc2ccc(N3C(=O)C=CC3=O)cc2)cc1 [Bismaleimide]', 'collision cross section in nitrogen', 174.3),
  ('[O-][n+]1ccc(Cl)cc1 [4-Chloropyridine 1-oxide]', 'collision cross section in nitrogen', 117.2),
  ('c1ccc(-c2nc3ccccc3[nH]2)cc1 [2-Phenylbenzimidazole]', 'collision cross section in nitrogen', 142.6),
  ('Cc1ccc(-c2cc(C(F)(F)F)nn2-c2ccc(S(N)(=O)=O)cc2)cc1 [Celecoxib]', 'collision cross section in nitrogen', 190.8),
  ('CCOP(=O)(CN(CCO)CCO)OCC [Diethyl (N,N-bis(2-hydroxyethyl)amino)methanephosphonate]', 'collision cross section in nitrogen', 157.5),
  ('CC(=O)Nc1ccc(N=Nc2c(S(=O)(=O)O)cc3cc(S(=O)(=O)O)cc(NC(C)=O)c3c2O)cc1 [C.I. Food Red 11]', 'collision cross section in nitrogen', 231.8);

Next up:
Q: Look up collision cross section in nitrogen: c1ccc(CNc2ncnc3c2ncn3C2CCCCO2)cc1 (stereo not drawn) [N-Benzyl-9-(tetrahydro-2H-pyran-2-yl)adenine]
Result: 185.6

----------
Some molecules, each annotated with its measured collision cross section in nitrogen.
- measurement.protocol: collision cross section in nitrogen (drift tube, single-field); higher = larger gas-phase ion size
- assay.setup: ion type: [M-H]; ion source: ESI; ion mode: Negative
// return numeric value only (unit: Å², not printed)

INSERT INTO measurements (molecule, meas_value) VALUES
  ('C[C@H]1CCCC(=O)CCC/C=C/c2cc(O)cc(O)c2C(=O)O1', 177.5),
  ('O=S(=O)(O)c1ccc(Cl)cc1', 133.5),
  ('CON(C)C(=O)Nc1ccc(Br)c(Cl)c1', 152.8),
  ('CCOC(=O)COc1cc(-n2ncc(C(F)(F)F)c(C)c2=O)c(F)cc1Cl', 183.3);

Next up:
Q: Look up collision cross section in nitrogen: COc1ccc(OC)c(NC(=O)CC(C)=O)c1 [N-(2,5-Dimethoxyphenyl)-3-oxobutanamide]
Result: 154.4

----------
- measurement.protocol: collision cross section in nitrogen (drift tube, single-field); higher = larger gas-phase ion size
- assay.setup: ion type: [M+H]; ion source: APCI; ion mode: Positive
Where a name gives a salt, the structure may show the parent alone.
Some molecules, each annotated with its measured collision cross section in nitrogen.
The number alone won't do; follow it with the unit.

INSERT INTO results (molecule, quantity, meas_value) VALUES
  ('c1cnc2c(n1)CCCC2 [5,6,7,8-Tetrahydroquinoxaline]', 'collision cross section in nitrogen', '126.6 Å²'),
  ('CCN(CC)c1ccc(C=NN(c2ccccc2)c2ccccc2)cc1 [4-[(Diphenylhydrazinylidene)methyl]-N,N-diethylaniline]', 'collision cross section in nitrogen', '189.8 Å²'),
  ('CCNc1nc(Cl)nc(NC(C)C)n1', 'collision cross section in nitrogen', '149 Å²'),
  ('CCN(CC)c1nc(C)cc(OP(=S)(OC)OC)n1', 'collision cross section in nitrogen', '165.5 Å²'),
  ('CCN(CC)C(=O)c1cc(S(=O)(=O)Cc2ccccc2)c(N2CCC(c3ccccc3)CC2)cc1N(CC)CCN(C)C [HMR1171 trifluoroacetate (1:1)]', 'collision cross section in nitrogen', '249.1 Å²'),
  ('CN(C)c1ccc(C=O)cc1', 'collision cross section in nitrogen', '129.3 Å²');

Q: Look up collision cross section in nitrogen: CCOC(=O)c1sc(N)nc1C(F)(F)F [Ethyl 2-amino-4-(trifluoromethyl)-1,3-thiazole-5-carboxylate]
Result: 155.3 Å²

Q: Can you handle COc1nc(C)nc(N)n1 next?
Result: 122.7 Å²

----------
- measurement.protocol: collision cross section in nitrogen (drift tube, single-field); higher = larger gas-phase ion size
- assay.setup: ion type: [M-H]; ion source: ESI; ion mode: Negative
Some compounds, each annotated with its measured collision cross section in nitrogen.
// return numeric value only (unit: Å², not printed)

INSERT INTO measurements (compound, quantity, meas_value) VALUES
  ('CCc1c(C(=O)NN2CCCCC2)nn(-c2ccc(Cl)cc2Cl)c1-c1ccc(Br)cc1', 'collision cross section in nitrogen', 226.6),
  ('NS(=O)(=O)O', 'collision cross section in nitrogen', 112),
  ('Cc1ccc(C(=O)c2cc(O)c(O)c([N+](=O)[O-])c2)cc1', 'collision cross section in nitrogen', 162.8),
  ('CC(Cc1ccc(OCC(=O)O)cc1)NCC(O)c1csc(C(F)(F)F)n1 (centres undefined)', 'collision cross section in nitrogen', 184.7),
  ('Nc1ccc(N=Nc2ccccc2)cc1', 'collision cross section in nitrogen', 145.4),
  ('CC(C)(C)c1ccc(O)c(O)c1', 'collision cross section in nitrogen', 139.3),
  ('O=C1OC2(c3ccc(O)cc3Oc3cc(O)ccc32)c2ccccc21', 'collision cross section in nitrogen', 176.8),
  ('Cc1cc(C2(c3cc(C)c(O)cc3C)OS(=O)(=O)c3ccccc32)c(C)cc1O', 'collision cross section in nitrogen', 198);

Q: Look up collision cross section in nitrogen: C#CC(C)N(C)C(=O)Nc1ccc(Cl)cc1 (centres undefined)
Result: 154.6

Q: Can you handle CCCCCOC(=O)CCCCC [n-Amyl caproate] next?
Result: 151.6
